- assayed target: T1, human BAFF receptor (BAFFR) (human, UniProt Q96RJ3 1-184)
- T1 sequence: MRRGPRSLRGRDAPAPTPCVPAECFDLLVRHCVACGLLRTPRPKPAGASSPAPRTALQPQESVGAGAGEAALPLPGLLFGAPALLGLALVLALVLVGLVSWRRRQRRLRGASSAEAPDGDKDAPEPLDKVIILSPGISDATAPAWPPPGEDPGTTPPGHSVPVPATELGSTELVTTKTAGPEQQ
- experimental details: cell-based or functional assay
readout: B-cell proliferation Agonism EC50

Q. // query B-cell proliferation Agonism EC50 value for entry MOR06743 Fab (Fab, V domains shown, Human Fab format; also called MOR6743) VH: QVQLQQSGPGLVKPSQTLSLTCAISGDSVSSNSAAWGWIRQSPGRGLEWLGRIYYRSKWYNSYAVSVKSRITINPDTSKNQFSLQLNSVTPEDTAVYYCARYDWVPKIGVFDSWGQGTLVTVSS VL: DIVLTQSPATLSLSPGERATLSCRASQMIDLRYLSWYQQKPGQAPRLLIYGSSSRATGVPARFSGSGSGTDFTLTISSLEPEDFAVYYCQQLYSSPMTFGQGTKVEIK
A. > 187 nM

Origin of the recorded values: patent US20120195913A1
